TARGET ENTITY: T1, rHuman P-Cadherin/Fc Chimera, CF (R&D Systems Cat#861-PC) (human, UniProt P22223 108-654)
T1 construct: Bought recombinant protein; Fc part of the bought chimera not given
PROTOCOL: ECL multispot (MSD) assay, antigen spotted on plate, 20 nM Fab;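 also: purified Fab bound to plate-spotted antigen for 1 h at 20 °C, labelled detection antibody added, ratio of antigen ECL signal to same-well blank, ratio ≥4 counted as binder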
ENDPOINT NAME: ECL signal/blank ratio (read-out not given)
Give bare numbers.

// ECL signal/blank ratio (read-out not given) value for Fab VH3-23_IGHD2-21*01>3_IGHJ6*01 H100E/S108P/Y113G A61T & V2-13_IGLJ2*01 (Fab, V domains shown, Tested as a Fab made in E. coli; also called EPG A61T) VH: EVQLLESGGGLVQPGGSLRLSCAASGFTFSSYAMSWVRQAPGKGLEWVSSISGSGGSTYYTDSVKGRFTISRDNSKNTLYLQMNSLRAEDTAVYYCAKEEIVVVIAIPYYYYGYGMDVWGQGTLVTVSS VL: SSELTQDPAVSVALGQTVRITCQGDSLRSYYASWYQQKPGQAPVLVIYGKNNRPSGIPDRFSGSSSGNTASLTITGAQAEDEADYYCNSRDSSGNHLVVFGGGTKLTVL : 20.9

FYI, the data here is from patent US20120316071A1.
